# measurement-target: CDK2 (Homo sapiens)
# Construct: endogenous in cells; host or cells: MDA-MB-231
# assay-summary: CDK protein degradation activity (Western blotting), CDK2
# Format: cell-based
# experimental-context: MDA-MB-231 cells, 1 μM, 16 hours, Western blot
# Description: In order to evaluate the CDK protein degradation activity of the compounds according to the present invention, the following experiment was conducted. MDA-MB-231 cells were seeded at 5×10^5 cells per well in a 6-well plate. The next day, the compounds were treated in each well to achieve final concentrations of 100 nM, 1 μM, and 10 μM. […] Cell lysates were quantified and separated by size using sodium dodecyl sulfate-polyacrylamide gel electrophoresis (SDS-PAGE). […]
recorded-endpoint: Enzyme degradation CDK2 (% remaining) @ 1 μM (%)

- compound: "Cc1cccc(C(=O)NC2CC(n3cnc4c(NCCC5CCN(CC6CCN(c7ccc8c(c7)C(=O)N([C@H]7CCC(=O)NC7=O)C8=O)CC6)CC5)ncnc43)C2)n1 (stereo partly drawn)"
  measured: 30
- compound: "Cc1cccc(C(=O)NC2CC(n3cnc4c(NCc5cccc(N6CCN(c7cccc8c7C(=O)N([C@H]7CCC(=O)NC7=O)C8=O)CC6)c5)ncnc43)C2)n1 (stereo partly drawn)"
  measured: 70
- compound: "Cc1cccc(C(=O)NC2CC(n3cnc4c(NCc5cccc(N6CCN(CC7CCN(C(=O)COc8ccc9c(c8)C(=O)N([C@H]8CCC(=O)NC8=O)C9=O)CC7)CC6)c5)ncnc43)C2)n1 (stereo partly drawn)"
  measured: 70

---

Listing: Enzyme degradation CDK9 (% remaining) @ 0.1 μM of selected compounds
# measurement-target: CDK9 (Homo sapiens, UniProt P50750)
# Construct: endogenous in cells; host or cells: MDA-MB-231
# Sequence (P50750 whole entry): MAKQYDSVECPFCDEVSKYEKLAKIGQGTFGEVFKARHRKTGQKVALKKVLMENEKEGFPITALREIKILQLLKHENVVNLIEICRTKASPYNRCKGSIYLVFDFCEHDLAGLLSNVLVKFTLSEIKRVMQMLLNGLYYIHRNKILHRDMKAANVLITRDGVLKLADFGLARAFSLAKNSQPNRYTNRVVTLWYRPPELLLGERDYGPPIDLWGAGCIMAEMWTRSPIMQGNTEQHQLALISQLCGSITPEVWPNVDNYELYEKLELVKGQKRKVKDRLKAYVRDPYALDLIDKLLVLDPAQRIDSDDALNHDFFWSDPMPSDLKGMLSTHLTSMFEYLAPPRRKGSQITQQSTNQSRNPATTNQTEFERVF
# assay-summary: CDK protein degradation activity (Western blotting), CDK9
# Assay type: cell-based
# experimental-context: MDA-MB-231 cells, 0.1 μM, 16 hours, Western blot
# Description: In order to evaluate the CDK protein degradation activity of the compounds according to the present invention, the following experiment was conducted. MDA-MB-231 cells were seeded at 5×10^5 cells per well in a 6-well plate. The next day, the compounds were treated in each well to achieve final concentrations of 100 nM, 1 μM, and 10 μM. […] Cell lysates were quantified and separated by size using sodium dodecyl sulfate-polyacrylamide gel electrophoresis (SDS-PAGE). […]
recorded-endpoint: Enzyme degradation CDK9 (% remaining) @ 0.1 μM (%)

- compound: "O=C1CC[C@H](N2C(=O)c3ccc(N4CC(C(=O)N5CCN(C6CN(c7ccc(Nc8ncnc9c8ncn9[C@H]8C[C@@H](NC(=O)Cc9ccccc9)C8)cc7)C6)CC5)C4)cc3C2=O)C(=O)N1 [Compound 373]"
  measurement-target: "CDK9 (Homo sapiens, UniProt P50750)"
  measured: 40
- compound: "O=C(COc1cccc2c1C(=O)N(C1CCC(=O)NC1=O)C2=O)NCC1CCC(CN2CCN(c3ccc(Nc4ncnc5c4ncn5C4CC(NC(=O)Cc5ccccc5)C4)cc3)CC2)CC1 (stereo not shown) [Compound 219]"
  measurement-target: "CDK9 (Homo sapiens, UniProt P50750)"
  measured: 100
- compound: "O=C1CC[C@H](N2C(=O)c3ccc(N4CCC(C(=O)N5CCN(CCCC6CCN(c7ccc(Nc8ncnc9c8ncn9[C@H]8C[C@@H](NC(=O)Cc9ccccc9)C8)cc7)CC6)CC5)CC4)cc3C2=O)C(=O)N1 [Compound 367]"
  measurement-target: "CDK9 (Homo sapiens, UniProt P50750)"
  measured: 10
- compound: "O=C1CC[C@H](N2C(=O)c3ccc(N4CCN(CC5CCN(c6ccc(Nc7ncnc8c7ncn8C7CC(NC(=O)Cc8ccccc8)C7)cc6)CC5)CC4)cc3C2=O)C(=O)N1 (stereo partly shown) [Compound 319]"
  measurement-target: "CDK9 (Homo sapiens, UniProt P50750)"
  measured: 70
- compound: "Cc1cccc(C(=O)N[C@H]2C[C@@H](n3cnc4c(NCc5cccc(N6CCN(CC7CCN(c8cccc9c8C(=O)N([C@H]8CCC(=O)NC8=O)C9=O)CC7)CC6)c5)ncnc43)C2)n1 [Compound 136]"
  measurement-target: "CDK9 (Homo sapiens, UniProt P50750)"
  measured: 10
- compound: "Cc1cccc(C(=O)N[C@H]2C[C@@H](n3cnc4c(NCc5cccc(OCCCN6CCN(C(=O)CNc7cccc8c7C(=O)N([C@H]7CCC(=O)NC7=O)C8=O)CC6)c5)ncnc43)C2)n1 [Compound 103]"
  measurement-target: "CDK9 (Homo sapiens, UniProt P50750)"
  measured: 30
- compound: "O=C1CC[C@H](N2C(=O)c3ccc(N4CCC(CN5CCC(CNc6ncnc7c6ncn7[C@H]6C[C@@H](NC(=O)c7c(Cl)cccc7Cl)C6)CC5)CC4)cc3C2=O)C(=O)N1 [Compound 173]"
  measurement-target: "CDK9 (Homo sapiens, UniProt P50750)"
  measured: 50
- compound: "O=C1CC[C@@H](c2ccc(OCC(=O)N3CCC(OCCN4CCN(c5ccc(Nc6ncnc7c6ncn7C6CC(NC(=O)Cc7ccccc7)C6)cc5)CC4)CC3)cc2)C(=O)N1 (stereo partly shown) [Compound 250]"
  measurement-target: "CDK9 (Homo sapiens, UniProt P50750)"
  measured: 40
- compound: "O=C1CC[C@H](N2C(=O)c3ccc(N4CCC(C(=O)N5CCN(C6CCN(c7ccc(Nc8ncnc9c8ncn9C8CC(NC(=O)Cc9ccccc9)C8)cc7)CC6)CC5)CC4)cc3C2=O)C(=O)N1 (stereo partly shown) [Compound 365]"
  measurement-target: "CDK9 (Homo sapiens, UniProt P50750)"
  measured: 30
- compound: "O=C1CC[C@H](N2C(=O)c3ccc(N4CCN(CCCC5CCN(c6ccc(Nc7ncnc8c7ncn8C7CC(NC(=O)Cc8ccccc8)C7)cc6)CC5)CC4)cc3C2=O)C(=O)N1 (stereo partly shown) [Compound 347]"
  measurement-target: "CDK9 (Homo sapiens, UniProt P50750)"
  measured: 30
- compound: "O=C1CC[C@H](N2C(=O)C=C(Nc3cccc(CC(=O)N4CCC5(CC4)CC(N4CCN(c6ccc(Nc7ncnc8c7ncn8[C@H]7C[C@@H](NC(=O)Cc8ccccc8)C7)cc6)CC4)C5)c3)C2=O)C(=O)N1 [Compound 192]"
  measurement-target: "CDK9 (Homo sapiens, UniProt P50750)"
  measured: 20
- compound: "Cc1cccc(C(=O)N[C@H]2C[C@@H](n3cnc4c(NCc5cccc(N6CCN(C(=O)CNc7cccc8c7C(=O)N(C7CCC(=O)NC7=O)C8=O)CC6)c5)ncnc43)C2)n1 (stereo partly shown) [Compound 130]"
  measurement-target: "CDK9 (Homo sapiens, UniProt P50750)"
  measured: 100
